Below are Minimum inhibitory concentration, Ec FADDI-EC001 values recorded for Enterobacter cloacae.
Positions of bridges follow the written chain, without caps; N, C: chain ends. Non-standard residues stand in square brackets, D forms with d. Residues, ends and D or L forms follow the SMILES beside them. *: point of attachment. Heptanoyl = CCCCCCC(=O)*; X14 = Cc1ccc(C(=O)*)cc1C; Dab = NCC[C@H](N)C(=O)O; Abu = CC[C@H](N)C(=O)O; Dap = NC[C@H](N)C(=O)O
endpoint: Minimum inhibitory concentration, Ec FADDI-EC001 (µg/mL)

compound="CC[C@@H]1NC(=O)[C@@H](CC(C)C)NC(=O)[C@H](CCN)NC(=O)[C@@H](NC(=O)[C@H](CN)NC(=O)[C@@H](NC(=O)[C@H](CCN)NC(=O)c2ccc(C)c(C)c2)[C@@H](C)O)CCNC(=O)[C@H]([C@@H](C)O)NC(=O)[C@H](CCN)NC(=O)[C@H](CCN)NC1=O [Compound 83] (X14-[Dab]T[Dap][Dab][Dab][dL][Abu][Dab][Dab]T; lactam 4-C)" u=µg/mL assay_value=0.25
compound="CCCCCCC(=O)N[C@@H](CCN)C(=O)N[C@H](C(=O)N[C@@H](CN)C(=O)N[C@H]1CCNC(=O)[C@H]([C@@H](C)O)NC(=O)[C@H](CCN)NC(=O)[C@H](CCN)NC(=O)[C@H](CC)NC(=O)[C@@H](CC(C)C)NC(=O)[C@H](CCN)NC1=O)[C@@H](C)O [Compound 64] (Heptanoyl-[Dab]T[Dap][Dab][Dab][dL][Abu][Dab][Dab]T; lactam 4-C)" u=µg/mL assay_value=0.5

---

Positions of bridges follow the written chain, without caps; N, C: chain ends. Non-standard residues stand in square brackets, D forms with d. Residues, ends and D or L forms follow the SMILES beside them. *: point of attachment. X9 = Cc1ccc(C(=O)*)cc1C(F)(F)F; X31 = O=C(c1ccc(Cl)cc1F)*; Dab = NCC[C@H](N)C(=O)O; Abu = CC[C@H](N)C(=O)O; Dap = NC[C@H](N)C(=O)O; Hexanoyl = CCCCCC(=O)*
Below are Minimum inhibitory concentration, Ec FADDI-EC003 values recorded for Enterobacter cloacae.
endpoint: Minimum inhibitory concentration, Ec FADDI-EC003 (µg/mL)

compound="CC[C@@H]1NC(=O)[C@@H](CC(C)C)NC(=O)[C@H](CCN)NC(=O)[C@@H](NC(=O)[C@H](CN)NC(=O)[C@@H](NC(=O)[C@H](CCN)NC(=O)c2ccc(Cl)cc2F)[C@@H](C)O)CCNC(=O)[C@H]([C@@H](C)O)NC(=O)[C@H](CCN)NC(=O)[C@H](CCN)NC1=O [Compound 134] (X31-[Dab]T[Dap][Dab][Dab][dL][Abu][Dab][Dab]T; lactam 4-C)" comparison_sign=< assay_value=0.125
compound="CC[C@@H]1NC(=O)[C@@H](CC(C)C)NC(=O)[C@H](CCN)NC(=O)[C@@H](NC(=O)[C@H](CN)NC(=O)[C@@H](NC(=O)[C@H](CCN)NC(=O)c2ccc(C)c(C(F)(F)F)c2)[C@@H](C)O)CCNC(=O)[C@H]([C@@H](C)O)NC(=O)[C@H](CCN)NC(=O)[C@H](CCN)NC1=O [Compound 113] (X9-[Dab]T[Dap][Dab][Dab][dL][Abu][Dab][Dab]T; lactam 4-C)" comparison_sign== assay_value=0.25
compound="CCCCCC(=O)N[C@@H](CCN)C(=O)N[C@H](C(=O)N[C@@H](CCN)C(=O)N[C@H]1CCNC(=O)[C@H]([C@@H](C)O)NC(=O)[C@H](CCN)NC(=O)[C@H](CCN)NC(=O)[C@H]([C@@H](C)O)NC(=O)[C@@H](CC(C)C)NC(=O)[C@H](CCN)NC1=O)[C@@H](C)O [Compound 26] (Hexanoyl-[Dab]T[Dab][Dab][Dab][dL]T[Dab][Dab]T; lactam 4-C)" comparison_sign== assay_value=0.5
